Molecular target: human IL-21R expressed on cells (human, UniProt Q9HBE5 20-538)
Sequence (Q9HBE5 20-538 limits assumed): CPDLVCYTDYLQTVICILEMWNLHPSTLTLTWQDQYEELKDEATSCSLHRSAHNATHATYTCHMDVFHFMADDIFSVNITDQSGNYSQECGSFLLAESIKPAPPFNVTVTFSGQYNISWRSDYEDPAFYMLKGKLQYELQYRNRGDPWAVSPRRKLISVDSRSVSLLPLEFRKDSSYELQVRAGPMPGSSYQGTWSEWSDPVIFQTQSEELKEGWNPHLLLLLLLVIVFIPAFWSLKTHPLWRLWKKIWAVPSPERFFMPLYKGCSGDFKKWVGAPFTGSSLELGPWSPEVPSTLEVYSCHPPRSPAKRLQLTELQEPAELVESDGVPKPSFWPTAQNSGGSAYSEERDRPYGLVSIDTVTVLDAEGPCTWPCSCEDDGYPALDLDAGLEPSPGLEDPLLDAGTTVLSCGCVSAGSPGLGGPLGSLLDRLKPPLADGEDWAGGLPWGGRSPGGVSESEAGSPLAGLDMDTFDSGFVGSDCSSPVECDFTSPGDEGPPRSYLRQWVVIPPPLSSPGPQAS
Experiment: cell-based or functional assay
readoutKind: IC50, Human IL-21R-BaF3 Neutralization Assay (nM)
Answers are plain numbers, in nM.

binder	quantityUnit	result
scFv L1 (scFv) scFv: QVQLQESGPGLVKTSETLSLTCAVSGYSISSGYYWGWIRQPPGKGLEWIGSISHTGNTYYNPPLKSRVTISVDTSKNQFSLKLSSVTAADTAVYYCARGGGISRPEYWGKGTLVTVSSGGGGSGGGGSGGGGSALSSELTQDPPVSVALGQTVTLTCQGDSLRTYYASWYQQKSGQAPILLLYGKHKRPSGIPDRFSGSTSGDTASLTITGAQAEDEADYYCASRSVSGNPHVLFGGGTQLTVL	nM	3.7

Field request: IC50, Human IL-21R-BaF3 Neutralization Assay | item: scFv L21 (scFv) scFv: QVQLQESGPGLVKTSETLSLTCAVSGYSISSGYYWGWIRQPPGKGLEWIGSISHTGNTYYNPPLKSRVTISVDTSKNQFSLKLSSVTAADTAVYYCARGGGISRPEYWGKGTLVTVSSGGGGSGGGGSGGGGSALSSELTQDPPVSVALGQTVTLTCQGDSLRTYYASWYQQKSGQAPILLLYGKHKRPSGIPDRFSGSTSGDTASLTITGAQAEDEADYYCATRAVRGNPHVLFGGGTQLTVL
9.4
